Reference source: ChEMBL document CHEMBL1139542

- Test system: Adrenomedullin (Homo sapiens)
- assay method text: Affinity against human adrenomedullin
endpoint: Affinity (%)

* c1ccc(OCc2nnc(CCCCCCCc3nnc(COc4ccccc4)o3)o2)cc1 | 6

A: Clc1ccc(OCc2nnc(CCCCCCCCc3nnc(COc4ccc(Cl)cc4)n3Nc3ccccc3)n2Nc2ccccc2)cc1
B: O=C(CCCCCCC(=O)NNC(=O)COc1ccccc1)NNC(=O)COc1ccccc1
C: Oc1c(OCc2nnc(CCCCCCCCc3nnc(COc4ccc5ccccc5c4O)n3Nc3ccccc3)n2Nc2ccccc2)ccc2ccccc12
Arrange by Affinity, high to low. Thanks in advance for listing the labels in the requested order.
C, A, B
(C: 83%, A: 51%, B: 20%)

1: Nn1c(CCCCCCCCc2nnc(COc3ccc(Cl)cc3)n2N)nnc1COc1ccc(Cl)cc1
2: c1ccc(Cn2c(CCCCCCCCc3nnc(COc4ccccc4)n3Cc3ccccc3)nnc2COc2ccccc2)cc1
Short answer wanted: higher Affinity, 1 or 2 ? State the label of the item chosen.
1

1: c1ccc(OCc2nnc(CCCCCCc3nnc(COc4ccccc4)o3)o2)cc1
2: c1ccc(OCc2nnc(CCCCc3nnc(COc4ccccc4)o3)o2)cc1
3: Nn1c(CCCCCCCCc2nnc(COc3c(O)ccc4ccccc34)n2N)nnc1COc1c(O)ccc2ccccc12
4: Clc1ccc(OCc2nnc(CCCCCCCCc3nnc(COc4ccc(Cl)cc4Cl)n3Nc3ccccc3)n2Nc2ccccc2)c(Cl)c1
Arrange by Affinity, high to low. Thanks in advance for listing the labels in the requested order.
4, 3, 2, 1

A: Nn1c(CCCCCCCCc2nnc(COc3ccc4ccccc4c3O)n2N)nnc1COc1ccc2ccccc2c1O
B: Oc1ccc2ccccc2c1OCc1nnc(CCCCCCCCc2nnc(COc3c(O)ccc4ccccc34)n2Nc2ccccc2)n1Nc1ccccc1
C: c1ccc(Cn2c(CCCCCc3nnc(COc4ccccc4)n3Cc3ccccc3)nnc2COc2ccccc2)cc1
D: c1ccc(OCc2nnc(CCCCCc3nnc(COc4ccccc4)o3)o2)cc1
Ascending by Affinity, please: list the compounds accordingly. Thanks in advance for listing the labels in the requested order.
D, C, B, A
